Reported CC50 at 4 days values for the following compounds.
- Protocol Notes: in vitro
- Test Context: human

| Compound | Val |
| --- | --- |
| N#C[C@@]1(c2ccc3c(N)ncnn23)O[C@H](CO)[C@@H](O)[C@H]1O | > 100 µM |
| NC(=O)c1nc(F)c[nH]c1=O | > 100 µM |

// next item, CC50 at 4 days requested
Input: Bench note: what CC50 at 4 days did CC(c1cc2ccccc2s1)N(O)C(N)=O (stereo not drawn) show?
Output: > 100 µM

---

- Tested on: SARS-CoV-2 (hCoV-19/USA-WA1/2020) in Vero CCL-81 cells
- Protocol Notes: microbe, parasite or virus in culture
- Format: cell-based
- Test Context: Severe acute respiratory syndrome coronavirus 2; Table 1 drugs; MOI 0.1, 48 h, 2% FBS; read-out: Vero CCL-81 SARS-CoV-2 EC50
Reported EC50 values for the following molecules.
Please answer using a numeric value trailed by its unit.

These recorded examples may help you get a feel for the data.
| Given Smiles | EC50 |
| --- | --- |
| Cc1ccc(-c2cc(C(F)(F)F)nn2-c2ccc(S(N)(=O)=O)cc2)cc1 | 7.2 µM |
| N#C[C@@]1(c2ccc3c(N)ncnn23)O[C@H](CO)[C@@H](O)[C@H]1O | 0.8 µM |
| Cc1cccc(Nc2ccccc2C(=O)O)c1C | 87.6 µM |

// next item, EC50 requested
Input: Bench note: what EC50 did CC(C)C(=O)OC[C@H]1O[C@@H](n2ccc(NO)nc2=O)[C@H](O)[C@@H]1O show?
Output: 0.6 µM

---

- System: SARS-CoV-2 (hCoV-19/USA-WA1/2020) in Calu-3 cells
- Protocol Notes: microbe, parasite or virus in culture
- Assay type: cell-based
- Test Context: Severe acute respiratory syndrome coronavirus 2, Calu-3; MOI 0.01, 72 h, 2% FBS; read-out: Calu-3 SARS-CoV-2 EC50
Structures can show the parent of a compound that is named as a salt.
Value Kind: EC50

These recorded examples may help you get a feel for the data.
| Molecule | Study System | Val |
| --- | --- | --- |
| COC(=O)N[C@H](C(=O)N1CCC[C@H]1c1nc(-c2ccc(-c3ccc(-c4c[nH]c([C@@H]5CCCN5C(=O)[C@@H](NC(=O)OC)C(C)C)n4)cc3)cc2)c[nH]1)C(C)C | SARS-CoV-2 (hCoV-19/USA-WA1/2020) in Calu-3 cells | > 100 µM |
| NC(=O)c1nc(F)c[nH]c1=O | SARS-CoV-2 (hCoV-19/USA-WA1/2020) in Calu-3 cells | > 300 µM |
| Cc1cccc(Nc2ccccc2C(=O)O)c1C | SARS-CoV-2 (hCoV-19/USA-WA1/2020) in Calu-3 cells | > 100 µM |

Input: Bench note: what EC50 did CC(c1cc2ccccc2s1)N(O)C(N)=O (stereo not drawn) show?
Output: > 100 µM

Input: Entry COCCCC/C(=N\OCCN)c1ccc(C(F)(F)F)cc1 [Fluvoxamine (maleate)] please
Output: > 100 µM

Input: Entry Cc1cccc(/C=N/Nc2cc(N3CCOCC3)nc(OCCc3ccccn3)n2)c1 [Apilimod mesylate] please
Output: > 100 µM
